TARGET: T1, CNA construct CNA11, two-hybrid prey (Mus musculus (Mouse), UniProt P48453 384-495)
T1 construct: not shown: HA-pJG4-5 prey fusion moiety
ASSAY PROCEDURE: yeast two-hybrid assay (FIG. 14)
MEASURED ATTRIBUTE: binding result

R5G42 mutant C2 (LexA fusion, two-hybrid bait) (designed binder, One amino acid change against R5G42; also called R5G42-C2; not shown: LexA fusion partner (pGILDA bait)) MVKQIESKTAFQEALDAAGDKLVVVDFSATWCGPSAVTFAVCALGPCKMIKLFFHSLSEKYSNVIFLEVDVDDCQDVASECEVKCMPTFQFFKKGQKVGEFSGANKEKLEATINELV | binds
R5G42 mutant N9 (LexA fusion, two-hybrid bait) (designed binder, One amino acid change against R5G42; also called R5G42-N9; not shown: LexA fusion partner (pGILDA bait)) MVKQIESKTAFQEALDAAGDKLVVVDFSAAWCGPSAVTFAVCALGPCKMIKPFFHSLSEKYSNVIFLEVDVDDCQDVASECEVKCMPTFQFFKKGQKVGEFSGANKEKLEATINELV | binds
